meta.source: patent US20110142868A1

Known conversion of 0708-30 by PAD2, 50 µM inhibitor of a selection of binders
- testedTarget: recombinant human PAD2 (human, UniProt Q9Y2J8 1-665)
- Sequence (Q9Y2J8 whole entry): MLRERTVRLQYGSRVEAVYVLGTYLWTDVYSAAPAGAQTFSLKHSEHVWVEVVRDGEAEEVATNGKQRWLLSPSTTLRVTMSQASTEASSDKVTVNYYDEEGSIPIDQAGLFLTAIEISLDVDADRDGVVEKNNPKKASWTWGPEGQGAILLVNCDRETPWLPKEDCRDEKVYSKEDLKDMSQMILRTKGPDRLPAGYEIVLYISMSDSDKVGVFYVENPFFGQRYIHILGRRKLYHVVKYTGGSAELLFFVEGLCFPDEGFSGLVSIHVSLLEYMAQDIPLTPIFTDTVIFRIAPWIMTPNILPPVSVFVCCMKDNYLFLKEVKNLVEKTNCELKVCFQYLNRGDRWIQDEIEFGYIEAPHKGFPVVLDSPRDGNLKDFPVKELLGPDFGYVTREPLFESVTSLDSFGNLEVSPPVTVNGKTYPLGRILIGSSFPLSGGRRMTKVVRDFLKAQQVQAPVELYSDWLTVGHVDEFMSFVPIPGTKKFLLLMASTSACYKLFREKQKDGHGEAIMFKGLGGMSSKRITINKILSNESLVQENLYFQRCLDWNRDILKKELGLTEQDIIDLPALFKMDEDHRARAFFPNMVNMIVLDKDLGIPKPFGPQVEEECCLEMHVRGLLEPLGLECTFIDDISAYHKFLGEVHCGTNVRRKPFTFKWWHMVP
- testProtocol: cell-based or functional assay
Square brackets hold non-standard residues; d marks the D form. Orn(fluoroacetimidoyl) = N=C(CF)NCCC[C@H](N)C(=O)O
Please state the figure in %; there is no need to write the unit.

binder: Ac-DSHKFD[Orn(fluoroacetimidoyl)]DFIYSD-NH2 (SMILES CC[C@H](C)[C@H](NC(=O)[C@H](Cc1ccccc1)NC(=O)[C@H](CC(=O)O)NC(=O)[C@H](CCCNC(=N)CF)NC(=O)[C@H](CC(=O)O)NC(=O)[C@H](Cc1ccccc1)NC(=O)[C@H](CCCCN)NC(=O)[C@H](Cc1c[nH]cn1)NC(=O)[C@H](CO)NC(=O)[C@H](CC(=O)O)NC(C)=O)C(=O)N[C@@H](Cc1ccc(O)cc1)C(=O)N[C@@H](CO)C(=O)N[C@@H](CC(=O)O)C(N)=O) [0741-05FA]
readoutValue: 24

conversion of 0708-30 by PAD2, 50 µM inhibitor for Ac-DSKKHD[Orn(fluoroacetimidoyl)]DFLYSD-NH2 (SMILES CC(=O)N[C@@H](CC(=O)O)C(=O)N[C@@H](CO)C(=O)N[C@@H](CCCCN)C(=O)N[C@@H](CCCCN)C(=O)N[C@@H](Cc1c[nH]cn1)C(=O)N[C@@H](CC(=O)O)C(=O)N[C@@H](CCCNC(=N)CF)C(=O)N[C@@H](CC(=O)O)C(=O)N[C@@H](Cc1ccccc1)C(=O)N[C@@H](CC(C)C)C(=O)N[C@@H](Cc1ccc(O)cc1)C(=O)N[C@@H](CO)C(=O)N[C@@H](CC(=O)O)C(N)=O) [0741-06FA] ?
42

Proceed to Ac-FFDSKHFD[Orn(fluoroacetimidoyl)]EWIWSD-NH2 (SMILES CC[C@H](C)[C@H](NC(=O)[C@H](Cc1c[nH]c2ccccc12)NC(=O)[C@H](CCC(=O)O)NC(=O)[C@H](CCCNC(=N)CF)NC(=O)[C@H](CC(=O)O)NC(=O)[C@H](Cc1ccccc1)NC(=O)[C@H](Cc1c[nH]cn1)NC(=O)[C@H](CCCCN)NC(=O)[C@H](CO)NC(=O)[C@H](CC(=O)O)NC(=O)[C@H](Cc1ccccc1)NC(=O)[C@H](Cc1ccccc1)NC(C)=O)C(=O)N[C@@H](Cc1c[nH]c2ccccc12)C(=O)N[C@@H](CO)C(=O)N[C@@H](CC(=O)O)C(N)=O) [0741-01FA]
29

Proceed to Ac-FFDSHKLH[Orn(fluoroacetimidoyl)]EWMWSD-NH2 (SMILES CSCC[C@H](NC(=O)[C@H](Cc1c[nH]c2ccccc12)NC(=O)[C@H](CCC(=O)O)NC(=O)[C@H](CCCNC(=N)CF)NC(=O)[C@H](Cc1c[nH]cn1)NC(=O)[C@H](CC(C)C)NC(=O)[C@H](CCCCN)NC(=O)[C@H](Cc1c[nH]cn1)NC(=O)[C@H](CO)NC(=O)[C@H](CC(=O)O)NC(=O)[C@H](Cc1ccccc1)NC(=O)[C@H](Cc1ccccc1)NC(C)=O)C(=O)N[C@@H](Cc1c[nH]c2ccccc12)C(=O)N[C@@H](CO)C(=O)N[C@@H](CC(=O)O)C(N)=O) [0741-04FA]
24
